TEST SUMMARY: Drug level in arrhythmia patient bile treated with amiodarone at 200 mg/day, po for 7 days by UPLC-Q/TOF mass spectrometry
Format: ADME, organism-based
CONDITION NOTES: human, in vivo, 168 h
RECORDED METRIC: Drug metabolism

Here's what some known entries look like.
1) CCN(CC)CCOc1ccc(C(=O)c2c(CCCC(=O)O)oc3ccccc23)cc1I; metabolite_detected
2) CCCCc1oc2cc(O)ccc2c1C(=O)c1cc(I)c(OCCN(CC)CC)c(I)c1; metabolite_detected
3) CCN(CC)CCOc1c(I)cc(C(=O)c2c(CCC(C)O)oc3ccccc23)cc1I (stereo not given); metabolite_detected
4) CCCCc1oc2ccccc2c1C(=O)c1ccc(OCCNCC)c(I)c1; metabolite_detected
5) CCCCc1oc2ccccc2c1C(=O)c1cc(I)c(OCCO)c(I)c1; metabolite_detected

Need Drug metabolism of CCNCCOc1c(I)cc(C(=O)c2c(CCCC(=O)O)oc3ccccc23)cc1I , thanks.
metabolite_detected

Need Drug metabolism of CCN(CC)CCOc1c(I)cc(C(=O)c2c(CCCC(=O)O)oc3ccccc23)cc1I , thanks.
metabolite_detected

Need Drug metabolism of CCN(CC)CCOc1c(I)cc(C(=O)c2c(CCCCO)oc3ccccc23)cc1I , thanks.
metabolite_detected

Need Drug metabolism of CCCCc1oc2ccccc2c1C(=O)c1cc(I)c(OCCNCC)c(I)c1 , thanks.
metabolite_detected

Need Drug metabolism of CCCCc1oc2ccccc2c1C(=O)c1cc(I)c(O)c(I)c1 , thanks.
metabolite_detected

---

Parameter: Retention_time. Scope: all listed entries.
TEST SUMMARY: Retention time of the compound by UPLC-Q/TOF mass spectrometry
Assay type: physicochemical
# include the unit after the value

Here's what some known entries look like.
1. CCN(CC)CCOc1c(I)cc(C(=O)c2c(CCCCO)oc3ccccc23)cc1I; 14.3 min
2. CCN(CC)CCOc1c(I)cc(C(=O)c2c(CCC(C)O)oc3ccccc23)cc1I (stereo not given); 14.5 min
3. CCCCc1oc2cc(O)ccc2c1C(=O)c1cc(I)c(OCCN(CC)CC)c(I)c1; 15.5 min
4. CCCCc1oc2ccccc2c1C(=O)c1ccc(OCCNCC)c(I)c1; 16.2 min
5. CCCCc1oc2ccccc2c1C(=O)c1cc(I)c(OCCNCC)c(I)c1; 17 min
6. CCN(CC)CCOc1c(I)cc(C(=O)c2c(CCCC(=O)O)oc3ccccc23)cc1I; 14.2 min
7. CCCCc1oc2ccccc2c1C(=O)c1cc(I)c(O)c(I)c1; 16.3 min
8. CCCCc1oc2ccccc2c1C(=O)c1cc(I)c(OCCO)c(I)c1; 21.5 min

Need Retention_time of CCN(CC)CCOc1ccc(C(=O)c2c(CCCC(=O)O)oc3ccccc23)cc1I , thanks.
13.3 min

Need Retention_time of CCNCCOc1c(I)cc(C(=O)c2c(CCCC(=O)O)oc3ccccc23)cc1I , thanks.
13.4 min
